Entry source: ChEMBL document CHEMBL2218924

- targetOrSystem: Tyrosine-protein kinase Mer (Homo sapiens) (UniProt Q12866)
- Sequence (whole entry): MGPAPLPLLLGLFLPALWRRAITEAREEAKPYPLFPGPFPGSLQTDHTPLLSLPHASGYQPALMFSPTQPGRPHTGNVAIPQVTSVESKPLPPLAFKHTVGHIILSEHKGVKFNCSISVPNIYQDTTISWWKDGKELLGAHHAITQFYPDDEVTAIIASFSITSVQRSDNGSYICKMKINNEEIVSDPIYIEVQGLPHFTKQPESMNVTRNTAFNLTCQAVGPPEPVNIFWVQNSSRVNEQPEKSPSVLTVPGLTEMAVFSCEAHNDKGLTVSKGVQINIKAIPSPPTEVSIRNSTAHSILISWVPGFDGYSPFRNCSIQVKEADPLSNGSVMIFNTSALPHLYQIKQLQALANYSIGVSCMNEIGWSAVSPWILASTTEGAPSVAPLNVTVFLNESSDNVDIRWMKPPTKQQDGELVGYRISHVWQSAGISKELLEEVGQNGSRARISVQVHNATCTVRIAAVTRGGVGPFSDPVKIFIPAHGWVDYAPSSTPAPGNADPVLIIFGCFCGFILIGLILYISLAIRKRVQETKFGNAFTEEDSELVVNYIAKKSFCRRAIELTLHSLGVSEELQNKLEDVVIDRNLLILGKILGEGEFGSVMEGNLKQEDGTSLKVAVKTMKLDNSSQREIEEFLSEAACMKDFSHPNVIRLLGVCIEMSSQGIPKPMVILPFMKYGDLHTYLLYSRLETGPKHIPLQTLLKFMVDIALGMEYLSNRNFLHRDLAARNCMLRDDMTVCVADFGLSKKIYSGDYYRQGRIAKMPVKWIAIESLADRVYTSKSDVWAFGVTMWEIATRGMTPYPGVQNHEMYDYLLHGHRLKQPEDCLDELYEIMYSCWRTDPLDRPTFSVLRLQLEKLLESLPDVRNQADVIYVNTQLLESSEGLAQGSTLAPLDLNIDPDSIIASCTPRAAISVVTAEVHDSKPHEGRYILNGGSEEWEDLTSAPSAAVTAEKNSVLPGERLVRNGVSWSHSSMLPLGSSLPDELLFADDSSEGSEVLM
- setupConditions: at 10 µM
met means recorded residual activity is 80% or above; not met means it is below 80%.

cpdSmiles | classification
CC(C)c1nn(-c2c(Cl)cccc2Cl)c2nc(Cc3ccc(OCCO)cc3)[nH]c(=O)c12 | not met
NCCNc1ncc(C(N)=O)c(Nc2cccc(C(F)(F)F)c2)n1 | not met
Nc1ncnc2c1cnn2-c1ccccc1 | met
O=C1NC(=O)C(c2cn(CCCO)c3ncccc23)=C1c1cnccn1 | met
Nc1ncnc2[nH]nc(Nc3ccc(F)cc3)c12 | not met
N#C/C(=C1/Nc2ccccc2S1)c1ccnc(NCCc2cccnc2)n1 | not met
O=C1Cc2c([nH]c3ccc(Br)cc23)-c2ccccc2N1 | not met
O=C1NC(=O)c2c1c1c3ccccc3[nH]c1n1cncc21 | not met
O=C1Nc2ccc(Cl)cc2/C1=C/c1cc(Cl)c(O)c(Cl)c1 | not met
CC(C)[C@H](CO)Nc1nc(Nc2cc(N)cc(Cl)c2)c2ncn(C(C)C)c2n1 | not met

====

Listed here: items and their measured residual activity.
- targetOrSystem: Serine/threonine-protein kinase BRSK1 (Homo sapiens) (UniProt Q8TDC3)
- Sequence (whole entry): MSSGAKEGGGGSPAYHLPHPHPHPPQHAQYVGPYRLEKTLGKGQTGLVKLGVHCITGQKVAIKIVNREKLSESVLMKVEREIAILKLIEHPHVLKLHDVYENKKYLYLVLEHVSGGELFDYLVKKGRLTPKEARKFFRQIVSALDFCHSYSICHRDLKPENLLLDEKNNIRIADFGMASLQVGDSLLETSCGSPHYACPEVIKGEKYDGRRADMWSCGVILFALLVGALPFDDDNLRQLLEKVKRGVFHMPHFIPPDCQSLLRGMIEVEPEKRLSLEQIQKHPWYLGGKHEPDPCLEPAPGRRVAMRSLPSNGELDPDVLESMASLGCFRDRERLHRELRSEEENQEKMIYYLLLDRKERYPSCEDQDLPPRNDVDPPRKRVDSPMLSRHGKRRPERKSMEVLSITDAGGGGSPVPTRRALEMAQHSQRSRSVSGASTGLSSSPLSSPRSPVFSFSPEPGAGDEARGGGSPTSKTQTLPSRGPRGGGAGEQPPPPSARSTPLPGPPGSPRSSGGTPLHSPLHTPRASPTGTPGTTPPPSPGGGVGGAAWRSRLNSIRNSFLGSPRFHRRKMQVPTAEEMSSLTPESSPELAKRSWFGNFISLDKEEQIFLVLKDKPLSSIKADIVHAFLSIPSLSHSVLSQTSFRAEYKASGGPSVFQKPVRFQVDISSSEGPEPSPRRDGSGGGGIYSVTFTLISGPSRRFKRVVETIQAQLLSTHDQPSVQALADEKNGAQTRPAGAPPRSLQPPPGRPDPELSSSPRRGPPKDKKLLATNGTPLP
- setupConditions: at 10 µM

cpdSmiles | residual activity / %
c1ccc(-c2cnc(Nc3ccc(OCCN4CCCC4)cc3)s2)cc1 | 42
O=c1cc(N2CCOCC2)oc2c1ccc1ccccc12 | 96
O=C(CCCc1ccc(-c2ccccc2F)cc1)Nc1ccc(O)cc1 | 83
O=C1Nc2ccc(Cl)cc2/C1=C/c1cc(Cl)c(O)c(Cl)c1 | 29
O=S(=O)(c1cccc2cnccc12)N1CCCNCC1 | 84
O=C1NC(=O)c2c1c1c3ccccc3[nH]c1n1cncc21 | 25
CC(C)(C)n1nc(Cc2cccc3ccccc23)c2c(N)ncnc21 | 91
NC(=O)Nc1sc(-c2ccc(F)cc2)cc1C(N)=O | 15
O=C(c1cc2cc(O)ccc2[nH]1)c1cc2cc(O)ccc2[nH]1 | 7
Nc1ncnc2[nH]nc(Nc3ccc(F)cc3)c12 | 18
Fc1ccc(-c2nc3n(c2-c2ccncc2)CCS3)cc1 | 100
CC(C)(C)c1nc2c3ccc(F)cc3c3c(=O)[nH]ccc3c2[nH]1 | 7

====

- targetOrSystem: Serine/threonine-protein kinase TAO3 (Homo sapiens)
- setupConditions: at 10 µM
Threshold 50%: residual activity strictly smaller gives met, otherwise not met.

molecule | targetOrSystem | classification
O=C(c1cc2cc(O)ccc2[nH]1)c1cc2cc(O)ccc2[nH]1 | Serine/threonine-protein kinase TAO3 (Homo sapiens) | met
O=c1cc(N2CCNCC2)oc2c(-c3ccccc3)cccc12 | Serine/threonine-protein kinase TAO3 (Homo sapiens) | not met
CCCC(=O)Oc1ccc2[nH]c(C(=O)c3cc4ccccc4[nH]3)cc2c1 | Serine/threonine-protein kinase TAO3 (Homo sapiens) | not met
CC(C)(C)c1nc2c3ccc(F)cc3c3c(=O)[nH]ccc3c2[nH]1 | Serine/threonine-protein kinase TAO3 (Homo sapiens) | not met
CCN(CC)CCNC(=O)c1c(C)[nH]c(/C=C2\C(=O)Nc3ccc(Cl)cc32)c1C | Serine/threonine-protein kinase TAO3 (Homo sapiens) | met
O=C1NC(=O)c2c1c1c3ccccc3[nH]c1n1cncc21 | Serine/threonine-protein kinase TAO3 (Homo sapiens) | not met
O=C(c1ccccc1)c1ccc(N2CCOCC2)cc1O | Serine/threonine-protein kinase TAO3 (Homo sapiens) | not met
O=C1Nc2ccc(Cl)cc2/C1=C/c1cc(Cl)c(O)c(Cl)c1 | Serine/threonine-protein kinase TAO3 (Homo sapiens) | not met
Oc1cccc(-c2nc(N3CCOCC3)c3oc4ncccc4c3n2)c1 | Serine/threonine-protein kinase TAO3 (Homo sapiens) | not met
CC(C)[C@H](CO)Nc1nc(Nc2cc(N)cc(Cl)c2)c2ncn(C(C)C)c2n1 | Serine/threonine-protein kinase TAO3 (Homo sapiens) | not met
COc1cc2nccc(Oc3ccc(NC(=S)NC(=O)c4ccccc4C)cc3)c2cc1OC | Serine/threonine-protein kinase TAO3 (Homo sapiens) | not met
O=C(CCCc1ccc(-c2ccccc2F)cc1)Nc1ccc(O)cc1 | Serine/threonine-protein kinase TAO3 (Homo sapiens) | not met
CC(C)c1nn(-c2c(Cl)cccc2Cl)c2nc(Cc3ccc(OCCO)cc3)[nH]c(=O)c12 | Serine/threonine-protein kinase TAO3 (Homo sapiens) | met
N#Cc1c(NC(=O)c2cccc3ccccc23)sc2c1CCCC2 | Serine/threonine-protein kinase TAO3 (Homo sapiens) | not met
Nc1ncnc2c1cnn2-c1ccccc1 | Serine/threonine-protein kinase TAO3 (Homo sapiens) | not met
CN(C)S(=O)(=O)c1ccc2c(c1)/C(=C/c1cc3c([nH]1)CCCC3)C(=O)N2 | Serine/threonine-protein kinase TAO3 (Homo sapiens) | not met
Nc1nc(Nc2ccc(S(N)(=O)=O)cc2)nn1C(=O)c1c(F)cccc1F | Serine/threonine-protein kinase TAO3 (Homo sapiens) | met
c1ccc(-c2cnc(Nc3ccc(OCCN4CCCC4)cc3)s2)cc1 | Serine/threonine-protein kinase TAO3 (Homo sapiens) | met
NC(=O)Nc1sc(-c2ccc(F)cc2)cc1C(N)=O | Serine/threonine-protein kinase TAO3 (Homo sapiens) | met
COc1ccc2c(c1)c(C1=C(c3c[nH]c4ccccc34)C(=O)NC1=O)cn2CCCN(C)C | Serine/threonine-protein kinase TAO3 (Homo sapiens) | met
O=C1Nc2ccccc2/C1=C\c1c(Cl)[nH]c2ccccc12 | Serine/threonine-protein kinase TAO3 (Homo sapiens) | met
CSc1nc(-c2ccc(F)cc2)c(-c2ccnc(NC(C)c3ccccc3)c2)[nH]1 (configuration not stated) | Serine/threonine-protein kinase TAO3 (Homo sapiens) | not met
